These entries and their values trace back to ChEMBL document CHEMBL1153313.

- assay.method.text: Half life in rat at 1 mg/kg, iv and 10 mg/kg, po
- Assay type: ADME, organism-based
- experimental.parameters: in vivo
quantity.measured: half-life (h)
API: value field is a number in h; no unit string.

Exercise: Indicate its recorded half-life; the molecule in question is O=C(Nc1nc(C(F)(F)F)co1)C1c2cccc(F)c2Oc2c(F)cccc21
Key: 3.9

* * *

- assay.method.text: Half life in rat at 3 mg/kg, iv and 6 mg/kg, po
- Format: ADME, organism-based
- experimental.parameters: in vivo
quantity.measured: half-life (min)
API: value field is a number in min; no unit string.

Exercise: Indicate its recorded half-life; the compound in question is O=C(Nc1nc(C(F)(F)F)co1)C1c2cc(F)ccc2Oc2ccc(F)cc21
Key: 148

* * *

Catalogue of compounds with associated Activity
- target.desc: Metabotropic glutamate receptor 1 (Rattus norvegicus)
- assay.method.text: Agonist activity at rat mGlu1 receptor expressed in HEK293 cells assessed as increase in intracellular calcium by FLIPR assay relative to control
- Assay type: functional, cell-based
- Parameters: concentration or dose not given beside the values

Some entries whose results are on file:
>  <compound.string>
O=C(Nc1nc(C(F)(F)F)co1)C1c2ccccc2Oc2ccccc21

>  <quantity.measured>
Activity

>  <result>
86%

$$$$
>  <compound.string>
O=C(Nc1nc(C(F)(F)F)co1)C1c2cc(F)ccc2Oc2ccc(F)cc21

>  <quantity.measured>
Activity

>  <result>
48%

$$$$
>  <compound.string>
O=C(Nc1ncc(C(F)(F)F)o1)C1c2ccccc2Oc2ccccc21

>  <quantity.measured>
Activity

>  <result>
104%

$$$$

// moving on: another record for Activity
Exercise: Provide Metabotropic glutamate receptor 1 (Rattus norvegicus) Activity reading for O=C(Nc1nc(C(F)(F)F)co1)C1c2cccc(F)c2Oc2c(F)cccc21 .
Key: 51%
